Molecular target: T1, MBP-Orf Q45A (Bacteriophage lambda, UniProt P03765 1-146, Q45A)
T1 sequence: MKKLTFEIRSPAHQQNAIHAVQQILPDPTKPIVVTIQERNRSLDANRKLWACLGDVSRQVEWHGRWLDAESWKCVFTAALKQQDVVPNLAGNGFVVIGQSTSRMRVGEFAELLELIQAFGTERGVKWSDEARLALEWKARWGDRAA
Experiment: fluorescence anisotropy; apparent, per dimer; EMSA: 50 mM Tris-HCl pH 8.0, 5 mM EDTA (or 1 mM MgCl2), 1 mM DTT, 5% glycerol, 100 ug/ml BSA, on ice 15 min, 4% PAGE; anisotropy: 100 mM Tris-HCl pH 7.0, 10 nM
Details: protein: recombinant; tags: N-terminal MBP; chain copies: 2; label: 3'-fluorescein; single strand
readout.name: Kd (nM)
Field: numeric (nM). Do not append units.

Lookup result for SS60-fluorescein (ssDNA) DNA: TTTGGTCTAACTTTACCGCTACTAAATGCCGCGGATTGGTTTCGCTGAATCAGGTTATTA ; measured Kd: 272
